tgt: homomeric α1 GlyR (Homo sapiens, UniProt P23415)
Construct: expressed in transfected cells; host or cells: CHO cells
experiment summary: Whole-cell patch-clamp of glycine-induced currents, α1 GlyR expressed in CHO cells
Assay type: cell-based
condition context: +30 mV; glycine 30 μM; representative; read-out: NFA IC50 (representative IC50 curve)
endpoint label: IC50
Answer by giving the amount and then stating its unit.

Param readout = IC50; param system = homomeric α1 GlyR (Homo sapiens, UniProt P23415); param query = O=C(O)c1cccnc1Nc1cccc(C(F)(F)F)c1 [NFA, Niflumic acid] ; response: value 218 µM

---

tgt: α2 GlyR (Homo sapiens, UniProt P23416)
Construct: expressed in transfected cells; host or cells: CHO cells
Sequence (P23416 28-452 isoform P23416-2 limits assumed): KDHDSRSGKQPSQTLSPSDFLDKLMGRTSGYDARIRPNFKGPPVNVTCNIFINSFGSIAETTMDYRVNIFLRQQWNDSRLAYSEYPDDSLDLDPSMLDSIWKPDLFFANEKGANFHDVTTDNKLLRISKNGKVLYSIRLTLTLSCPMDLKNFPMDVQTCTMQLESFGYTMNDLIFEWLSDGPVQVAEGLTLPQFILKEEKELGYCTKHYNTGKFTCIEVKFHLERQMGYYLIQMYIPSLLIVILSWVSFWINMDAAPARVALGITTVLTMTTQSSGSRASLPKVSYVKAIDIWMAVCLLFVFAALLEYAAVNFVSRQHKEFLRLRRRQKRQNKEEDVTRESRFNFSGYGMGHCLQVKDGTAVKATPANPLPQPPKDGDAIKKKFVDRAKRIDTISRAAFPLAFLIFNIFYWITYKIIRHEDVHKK
experiment summary: Whole-cell patch-clamp of glycine-induced currents, α2 GlyR expressed in CHO cells
Format: cell-based
condition context: +30 mV; glycine 30 μM; representative; read-out: NFA IC50 (representative IC50 curve)
endpoint label: IC50
Answer by giving the amount and then stating its unit.

Can you look up the measured IC50 of O=C(O)c1cccnc1Nc1cccc(C(F)(F)F)c1 [NFA, Niflumic acid] for me? 17 µM

---

tgt: homomeric α1 GlyR (Homo sapiens, UniProt P23415)
Construct: expressed in transfected cells; host or cells: CHO cells
experiment summary: Whole-cell patch-clamp of glycine-induced currents, α1 GlyR expressed in CHO cells
Type: cell-based
condition context: +80 mV; glycine 100 μM; representative; read-out: NFA IC50 (representative IC50 curve)
endpoint label: pIC50
# reply with the number alone; pIC50 is -log10 of concentration in mol/L

Can you look up the measured pIC50 of O=C(O)c1cccnc1Nc1cccc(C(F)(F)F)c1 [NFA, Niflumic acid] for me? 4.03

---

tgt: G254A-α1 GlyR (Homo sapiens, UniProt P23415, G282A)
Construct: expressed in transfected cells; host or cells: CHO cells
experiment summary: Whole-cell patch-clamp of glycine-induced currents, G254A-α1 GlyR mutant expressed in CHO cells
Type: cell-based
condition context: −80 mV; glycine 100 μM; representative; read-out: NFA IC50 (representative IC50 curve)
endpoint label: IC50 (µM)
Enter your answer as a number in µM; do not include the unit.

Can you look up the measured IC50 of O=C(O)c1cccnc1Nc1cccc(C(F)(F)F)c1 [NFA, Niflumic acid] for me? 260

---

tgt: α3 GlyR (Homo sapiens, UniProt O75311)
Construct: expressed in transfected cells; host or cells: CHO cells
Sequence (O75311 34-464): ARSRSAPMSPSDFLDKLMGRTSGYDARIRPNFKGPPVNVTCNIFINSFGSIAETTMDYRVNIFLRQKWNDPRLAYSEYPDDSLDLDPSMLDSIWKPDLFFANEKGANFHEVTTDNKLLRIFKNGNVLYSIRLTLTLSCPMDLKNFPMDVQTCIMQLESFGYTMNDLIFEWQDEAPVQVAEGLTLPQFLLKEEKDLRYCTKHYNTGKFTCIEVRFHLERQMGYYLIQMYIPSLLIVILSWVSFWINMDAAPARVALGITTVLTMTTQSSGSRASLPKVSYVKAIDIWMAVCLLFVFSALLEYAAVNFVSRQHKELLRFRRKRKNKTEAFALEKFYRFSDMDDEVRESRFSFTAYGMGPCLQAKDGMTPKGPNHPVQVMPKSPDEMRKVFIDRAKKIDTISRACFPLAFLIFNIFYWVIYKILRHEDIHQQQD
experiment summary: Whole-cell patch-clamp of glycine-induced currents, α3 GlyR expressed in CHO cells
Format: cell-based
condition context: −80 mV; glycine 100 μM; representative; read-out: NFA IC50 (representative IC50 curve)
Experimental: The experiments were carried out on cultured Chinese hamster ovary (CHO) cells obtained from the American Type Tissue Culture Collection (ATCC, Molsheim, France) that were maintained in culture conditions as previously described (Mukhtarov et al., [2013]; Maleeva et al., [2015]). One day before transfection, cells were plated on the cover slips (12 mm in diameter) and placed inside 35-mm cell culture dishes with 2 ml of medium. […]
endpoint label: pIC50
# reply with the number alone; pIC50 is -log10 of concentration in mol/L

Can you look up the measured pIC50 of O=C(O)c1cccnc1Nc1cccc(C(F)(F)F)c1 for me? 3.93

---

tgt: α3 GlyR (Homo sapiens, UniProt O75311)
Construct: expressed in transfected cells; host or cells: CHO cells
experiment summary: Whole-cell patch-clamp of glycine-induced currents, α3 GlyR expressed in CHO cells
Format: cell-based
condition context: MP −80 mV; glycine 100 μM; mean ± SEM; read-out: IC50 of NFA
endpoint label: IC50 (µM)
Enter your answer as a number in µM; do not include the unit.

Can you look up the measured IC50 of O=C(O)c1cccnc1Nc1cccc(C(F)(F)F)c1 for me? 86

---

tgt: α2β GlyR (Homo sapiens, UniProt P23416+P48167)
Construct: expressed in transfected cells; host or cells: CHO cells
experiment summary: Whole-cell patch-clamp of glycine-induced currents, heteromeric α2β GlyR expressed in CHO cells
Type: cell-based
condition context: +30 mV; glycine 30 μM; representative; read-out: NFA IC50 (representative IC50 curve)
endpoint label: IC50 (µM)
Enter your answer as a number in µM; do not include the unit.

Can you look up the measured IC50 of O=C(O)c1cccnc1Nc1cccc(C(F)(F)F)c1 for me? 24

---

tgt: α2 GlyR (Homo sapiens, UniProt P23416)
Construct: expressed in transfected cells; host or cells: CHO cells
Sequence (P23416 28-452 isoform P23416-2 limits assumed): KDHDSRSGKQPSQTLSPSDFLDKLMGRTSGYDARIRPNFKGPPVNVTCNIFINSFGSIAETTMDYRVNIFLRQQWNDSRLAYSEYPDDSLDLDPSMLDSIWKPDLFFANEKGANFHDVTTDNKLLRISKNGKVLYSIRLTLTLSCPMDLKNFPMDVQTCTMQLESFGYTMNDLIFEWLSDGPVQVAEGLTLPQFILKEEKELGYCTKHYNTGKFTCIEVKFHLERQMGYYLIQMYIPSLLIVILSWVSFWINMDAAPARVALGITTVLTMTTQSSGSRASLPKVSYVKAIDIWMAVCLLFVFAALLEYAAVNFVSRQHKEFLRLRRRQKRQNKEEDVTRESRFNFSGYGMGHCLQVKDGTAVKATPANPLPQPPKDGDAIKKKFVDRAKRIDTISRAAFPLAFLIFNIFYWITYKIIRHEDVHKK
experiment summary: Whole-cell patch-clamp of glycine-induced currents, α2 GlyR expressed in CHO cells
Format: cell-based
condition context: −80 mV; glycine 30 μM; representative; read-out: NFA IC50 (representative IC50 curve)
endpoint label: pIC50
# reply with the number alone; pIC50 is -log10 of concentration in mol/L

Can you look up the measured pIC50 of O=C(O)c1cccnc1Nc1cccc(C(F)(F)F)c1 for me? 3.81

---

tgt: α3 GlyR (Homo sapiens)
Construct: expressed in transfected cells; host or cells: CHO cells
experiment summary: Whole-cell patch-clamp of glycine-induced currents, α3 GlyR expressed in CHO cells
Format: cell-based
condition context: +80 mV; glycine 100 μM; representative; read-out: NFA IC50 (representative IC50 curve)
endpoint label: pIC50
# reply with the number alone; pIC50 is -log10 of concentration in mol/L

Can you look up the measured pIC50 of O=C(O)c1cccnc1Nc1cccc(C(F)(F)F)c1 for me? 5.00

---

tgt: α1β GlyR (Homo sapiens, UniProt P23415+P48167)
Construct: expressed in transfected cells; host or cells: CHO cells
experiment summary: Whole-cell patch-clamp of glycine-induced currents, heteromeric α1β GlyR expressed in CHO cells
Format: cell-based
condition context: +80 mV; glycine 30 μM; mean ± SEM; read-out: IC50 of NFA
endpoint label: IC50 (µM)
Enter your answer as a number in µM; do not include the unit.

Param readout = IC50; param system = α1β GlyR (Homo sapiens, UniProt P23415+P48167); param query = O=C(O)c1cccnc1Nc1cccc(C(F)(F)F)c1 ; response: value 150

---

tgt: G254A-α1 GlyR (Homo sapiens, UniProt P23415, G282A)
Construct: expressed in transfected cells; host or cells: CHO cells
Sequence (P23415 29-449 isoform P23415-2 G282A limits assumed): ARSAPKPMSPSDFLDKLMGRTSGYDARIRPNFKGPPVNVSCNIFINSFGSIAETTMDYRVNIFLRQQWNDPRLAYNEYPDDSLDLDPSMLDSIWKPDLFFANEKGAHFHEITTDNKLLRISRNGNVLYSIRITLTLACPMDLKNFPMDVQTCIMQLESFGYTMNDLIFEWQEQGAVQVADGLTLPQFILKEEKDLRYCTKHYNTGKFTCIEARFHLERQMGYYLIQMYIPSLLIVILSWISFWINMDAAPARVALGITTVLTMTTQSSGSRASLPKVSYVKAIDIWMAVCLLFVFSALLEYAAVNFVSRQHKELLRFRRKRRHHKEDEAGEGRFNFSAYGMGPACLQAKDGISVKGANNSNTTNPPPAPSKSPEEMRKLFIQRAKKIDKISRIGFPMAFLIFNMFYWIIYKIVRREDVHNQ
experiment summary: Whole-cell patch-clamp of glycine-induced currents, G254A-α1 GlyR mutant expressed in CHO cells
Format: cell-based
condition context: −80 mV; glycine 30 μM; representative; read-out: NFA IC50 (representative IC50 curve)
Method: The experiments were carried out on cultured Chinese hamster ovary (CHO) cells obtained from the American Type Tissue Culture Collection (ATCC, Molsheim, France) that were maintained in culture conditions as previously described (Mukhtarov et al., [2013]; Maleeva et al., [2015]). One day before transfection, cells were plated on the cover slips (12 mm in diameter) and placed inside 35-mm cell culture dishes with 2 ml of medium. […]
endpoint label: IC50 (µM)
Enter your answer as a number in µM; do not include the unit.

Can you look up the measured IC50 of O=C(O)c1cccnc1Nc1cccc(C(F)(F)F)c1 for me? 230
